Each record here notes measured kon.
target_or_test_system: T1, recombinant hTfR, extracellular region of human transferrin receptor with a histidine tag added at the … (human, UniProt P02786 89-760)
T1 construct: also called hTfR-ECD(Histag); human TfR; not shown: N-terminal histidine tag
T1 sequence (P02786 89-760): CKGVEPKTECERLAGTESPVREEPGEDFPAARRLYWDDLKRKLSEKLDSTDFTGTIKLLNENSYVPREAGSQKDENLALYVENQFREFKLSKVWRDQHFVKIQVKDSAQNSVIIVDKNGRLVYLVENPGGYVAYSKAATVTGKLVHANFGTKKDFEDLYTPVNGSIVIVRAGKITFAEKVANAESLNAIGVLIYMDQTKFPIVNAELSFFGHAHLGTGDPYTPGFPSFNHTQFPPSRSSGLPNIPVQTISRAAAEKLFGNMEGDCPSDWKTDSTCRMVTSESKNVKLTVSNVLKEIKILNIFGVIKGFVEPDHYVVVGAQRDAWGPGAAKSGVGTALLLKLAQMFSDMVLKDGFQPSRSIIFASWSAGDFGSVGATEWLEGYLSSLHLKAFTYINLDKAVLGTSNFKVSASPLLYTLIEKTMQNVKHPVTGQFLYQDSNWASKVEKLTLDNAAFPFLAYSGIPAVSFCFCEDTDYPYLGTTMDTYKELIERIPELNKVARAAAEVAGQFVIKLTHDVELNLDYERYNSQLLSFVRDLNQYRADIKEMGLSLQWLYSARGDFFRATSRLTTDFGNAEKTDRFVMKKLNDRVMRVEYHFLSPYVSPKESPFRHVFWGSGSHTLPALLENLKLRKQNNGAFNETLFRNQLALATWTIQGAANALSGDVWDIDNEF
assay: BLI (OctetRED96), His-tagged TfR ECD on Ni-NTA sensor, peptide in solution

hTfR affinity peptide 4 (VHH, The tag is stated only for peptide 1; Peptides 2 to 5 were obtained 'in the same manner'; also called clone 4; VHH(4)) VHH: QVQLVESGGGLVQAGASLRLSCAASGRTDGIDRMAWFHQAPGEGREFVAGINKRGGGVDYAPGVKGRFTLSLDSDKNTLYLQMNNLRLEDTGVYSCAVGSGRIIVKSDTWGQGTQVTVSS :: 227000 M⁻¹ s⁻¹

Alright, here's another binder for you.
INPUT: Return kon (reported value) for this binder: hTfR affinity peptide 2 (VHH, The tag is stated only for peptide 1; Peptides 2 to 5 were obtained 'in the same manner'; also called clone 2; VHH(2)) VHH: QVQLVESGGGLVHPGGSLSLSCAASGTSFSFNTVTWYRQALGKQREWVATINGSGAPTYADSVKGRFTISRDGAKNTVYLLMNSLVTEDTALYYCYDRYNEIRGQGTQVTVSS
OUTPUT: 237000 M⁻¹ s⁻¹
